Entry source: paper PMC9469097

method summary: Pharmacokinetic interaction between Styrax and midazolam (i.v. and i.g.) in rats
assay conditions: male, Sprague-Dawley, rat, plasma, po, 20 mg/kg, Cmax, rats; midazolam i.g. 20 mg/kg; pretreated with Soybean oil
readout kind: Cmax (ng/mL)
Express it in ng/mL; write the number only.

get_value(item= Cc1ncc2n1-c1ccc(Cl)cc1C(c1ccccc1F)=NC2 , readout=Cmax) returns 129

---

method summary: Pharmacokinetic interaction between Styrax and midazolam (i.v. and i.g.) in rats
assay conditions: male, Sprague-Dawley, rat, plasma, po, 20 mg/kg, t1/2, rats; midazolam i.g. 20 mg/kg; pretreated with Soybean oil
readout kind: half-life (min)
// return numeric value only (unit: min, not printed)

Record Cc1ncc2n1-c1ccc(Cl)cc1C(c1ccccc1F)=NC2 [midazolam] , field half-life: 128
